- System Name: T1, human TIGIT protein (human, UniProt Q495A1 22-141, limits assumed)
- T1 construct: Recombinant protein (Genentech) used in ELISA screening and as SPR analyte; also called TIGIT antigen
- T1 sequence: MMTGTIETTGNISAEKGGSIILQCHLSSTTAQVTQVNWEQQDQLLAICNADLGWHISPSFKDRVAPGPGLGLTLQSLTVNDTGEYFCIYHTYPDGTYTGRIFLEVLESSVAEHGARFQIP
- Experiment Summary: SPR, captured mAb
Kindly supply the reported kon values for the records listed here.
One number for each entry, in M⁻¹ s⁻¹.

binder="rat6B2 (antibody, V domains shown, SD rat-derived; rat V domains as FR/HVR pieces; also called 1.6B2; Chimeric 1.6B2) VH: QVSLKESGPGILQPSHTLSLTCSFSGFSLSTYGMGVSWIRQPSEKGLEWLASIWWNGNTYYNPSLKSRLTVSKDASNDQAFLNVTSVDTTDTATYYCAHTGGAVITWFAYWGQGTLVTVSS VL: NIVMTQSPKSMSISVGDRVTMNCKASQSVGKNIAWYQQKPGQSPKLLIYYASNRYTGVPDRFTGGGSGTDFTLTINTVQAEDAAFFYCQHIYNSPYPFGTGTKLEIK" quantity_name=kon scale_unit="M⁻¹ s⁻¹" recorded_measurement=997000

Give measured kon for every item shown.
1. h15C8.L1H8 (antibody, V domains shown, VH: F91Y against h15C8.L1H1; FR/HVR pieces) VH: EVQLVQSGAEVKKPGASVKVSCKASGYTFTEHSIYWLRQAPGQRLEIIGRIDPKNGRTYFVDKFKNRATLTTDTSASTAYMELSSLRSEDTAVYYCARIDGFYFDFWGQGTLVTVSS VL: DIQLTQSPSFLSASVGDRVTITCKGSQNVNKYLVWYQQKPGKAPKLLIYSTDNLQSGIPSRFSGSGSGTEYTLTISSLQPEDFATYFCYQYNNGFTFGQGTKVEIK
2. h6B2.L1H1 (antibody, V domains shown, Humanized; FR/HVR pieces in order; also called h1.6B2.L1H1) VH: EVTLKESGPALVKPTQTLTLTCTFSGFSLSTYGMGVSWIRQPPGKALEWLASIWWNGNTYYNPSLKSRLTVTKDASKNQAVLTMTNMDPVDTATYYCAHTGGAVITWFAYWGQGTLVTVSS VL: DIQMTQSPSSLSASVGDRVTITCKASQSVGKNIAWYQQKPGKSPKLLIYYASNRYTGVPSRFSGSGSGTDFTFTISSLQPEDIATYYCQHIYNSPYPFGQGTKVEIK

## Output
620000
4.67e+06
